# measurement-notes: Singlet oxygen quantum yield, chemical method with DPBF quencher
# Assay type: physicochemical
# measurement-parameters: DMF, 414 nm
test-readout: Singlet oxygen quantum yield ΦΔ
Simply state the number, no unit and no words.

input: Please look up its Singlet oxygen quantum yield ΦΔ: [Zn+2].c1ccc2c(c1)-c1nc-2nc2[n-]c(nc3nc([n-]c4nc(n1)-c1ccccc1-4)-c1ccccc1-3)c1ccccc21 [Std-ZnPc, zinc(II) phthalocyanine, reference compound]
output: 0.56

###

# measurement-notes: Fluorescence excitation and emission spectra in DMF
# Type: physicochemical
# Procedure: Fluorescence behaviors of the AzaPc1/Pc2-Pc5 compounds were evaluated in DMF solutions. FIGS. 12A-12E show absorption, fluorescence emission and excitation spectra of these complexes. Excitation maxima appear at 629 nm for AzaPc1, 679 nm for Pc2, 678 nm for Pc3, 682 nm for Pc4 and 700 nm for Pc5 in DMF. Emission maxima appear at 639 nm, 683 nm, 686 nm, 688 nm and 707 nm for AzaPc1/Pc2-Pc5, respectively. […]
test-readout: λEx (excitation maximum) (nm)
Express your answer in nm, writing the number without its unit.

C#CCOCc1cc(C)cc(COCC#C)c1Oc1cc2c(cc1Oc1c(COCC#C)cc(C)cc1COCC#C)C1=Nc3c4cc(Oc5c(COCC#C)cc(C)cc5COCC#C)c(Oc5c(COCC#C)cc(C)cc5COCC#C)cc4c4[n]3[Zn][n]3c(c5cc(Oc6c(COCC#C)cc(C)cc6COCC#C)c(Oc6c(COCC#C)cc(C)cc6COCC#C)cc5c3=NC3=NC(=N4)c4cc(Oc5c(COCC#C)cc(C)cc5COCC#C)c(Oc5c(COCC#C)cc(C)cc5COCC#C)cc43)=NC2=N1    679
C#CCOCc1cc(C)cc(COCC#C)c1Oc1nc2c(nc1Oc1c(COCC#C)cc(C)cc1COCC#C)C1=Nc3c4nc(Oc5c(COCC#C)cc(C)cc5COCC#C)c(Oc5c(COCC#C)cc(C)cc5COCC#C)nc4c4[n]3[Zn][n]3c(c5nc(Oc6c(COCC#C)cc(C)cc6COCC#C)c(Oc6c(COCC#C)cc(C)cc6COCC#C)nc5c3=NC3=NC(=N4)c4nc(Oc5c(COCC#C)cc(C)cc5COCC#C)c(Oc5c(COCC#C)cc(C)cc5COCC#C)nc43)=NC2=N1    629
C#CCOCc1cc(C)cc(COCC#C)c1Oc1ccc2c(c1)C1=NC2=Nc2c3cc(Oc4c(COCC#C)cc(C)cc4COCC#C)ccc3c3[n]2[Zn][n]2c(c4ccc(Oc5c(COCC#C)cc(C)cc5COCC#C)cc4c2=NC2=NC(=N3)c3cc(Oc4c(COCC#C)cc(C)cc4COCC#C)ccc32)=N1    682
[Zn+2].c1ccc2c(c1)-c1nc-2nc2[n-]c(nc3nc([n-]c4nc(n1)-c1ccccc1-4)-c1ccccc1-3)c1ccccc21 [Std-ZnPc, zinc(II) phthalocyanine, reference compound]    670

input: # get_value(readout='λEx (excitation maximum)', item= `C#CCOCc1cc(C)cc(COCC#C)c1Oc1cc2c(cc1Cl)C1=Nc3c4cc(Oc5c(COCC#C)cc(C)cc5COCC#C)c(Cl)cc4c4[n]3[Zn][n]3c(c5cc(Cl)c(Oc6c(COCC#C)cc(C)cc6COCC#C)cc5c3=NC3=NC(=N4)c4cc(Oc5c(COCC#C)cc(C)cc5COCC#C)c(Cl)cc43)=NC2=N1` )
output: 678
